assay: NCI Yeast Anticancer Drug Screen. Data for the sgs1 mgt1 strain (AID 161); conditions: S. cerevisiae sgs1 mgt1 strain, at 50.0 µM (retest, dose inferred, filed as 5.0), active compounds read high
Compounds without any hit were thinned out: in the full panel of roughly 79,000, 15% have a hit.
// Not met strictly below 50% in growth inhibition; Met otherwise

Solved entries (count: 5):
- compound: "CSc1ccc(/C=C2/C[N+](C)(C)C/C(=C/c3ccc(SC)cc3)C2=O)cc1"
  category label: "Not met"
- compound: "Nc1nc(N)c2nc(CNc3ccc(C(=O)NC(CCC(=O)O)C(=O)O)cc3)ccc2n1 (configuration not stated)"
  category label: "Not met"
- compound: "CCOC(=O)N/N=C/c1ccc([N+](=O)[O-])o1"
  category label: "Met"
- compound: "CCCCCCCCN=C(N)c1ccc(C(=O)OCC2CCCCC2)cc1"
  category label: "Met"
- compound: "C=Nc1ccc2ccccc2c1Cc1c(O)ccc2ccccc12"
  category label: "Met"

Query string: Is reported growth inhibition greater than or equal to 50% here: O=C(c1ccccc1)C1(C(=O)c2ccccc2)/C(=N\O)C2CCC1C2 (configuration not stated)
Result string: Met

Query string: Can C/C(=N\O)c1ccc2cc(Br)c3ccccc3c2c1 be said to have growth inhibition at or above 50%?
Result string: Met

Query string: Does the reported growth inhibition for O=C(Nc1ccc(F)cc1)N1CCCCC1 fall at or above the 50% mark?
Result string: Not met

Query string: Textbook exercise: given the entry O=c1c(-c2ccccc2)coc2cc(O)ccc12 , state whether its growth inhibition is greater than or equal to 50%.
Result string: Not met

Query string: Determine whether this compound has growth inhibition no lower than 50%: COc1cccc2c1C(=O)c1c(O)c3c(c(O)c1C2=O)C[C@@](O)(C(C)=O)C[C@@H]3OC1CC([N+]([O-])(Cc2ccccc2)Cc2ccccc2)C(O)C(C)O1 (some centres not stated)
Result string: Met

Query string: For this compound, is measured growth inhibition 50% or higher? CC1=C(C)C(N2CCOCC2)CS(=O)(=O)O1 (configuration not stated)
Result string: Not met

Query string: Hello, I need to know if CCCCCCCCCCCc1nnc(N)o1 has measured growth inhibition not below 50%. Thanks!
Result string: Met

Query string: Is it the case that C=C(CN1CCCC1)C(=O)c1ccc(OC)cc1 has growth inhibition reaching or exceeding 50%?
Result string: Met

Query string: Has CCOC(=O)/C(=C\c1cccc(OC)c1)C(C)=O a recorded growth inhibition greater than or equal to 50%?
Result string: Met

Query string: Evaluate C=CCC1=C(C)C(OC(=O)/C=C/c2ccccc2Cl)CC1=O (configuration not stated) : growth inhibition at minimum 50%?
Result string: Met

Query string: Please check the record O=C(O)c1ccc(C(=O)c2ccccc2C(=O)O)cc1 and state if its growth inhibition is at or above 50%.
Result string: Not met

Query string: Quick check, growth inhibition >= 50%? O=C1OCC2=C1C(c1ccc(Cl)cc1)c1cc3c(cc1O2)OCO3 (configuration not stated)
Result string: Not met
